Data provenance is ChEMBL document CHEMBL3433997.

molecular target: Hexose transporter 1 (Plasmodium falciparum) (UniProt O97467); assay: ST_JUDE_LEISH: Cytotoxicity at 2uM final concentration against transgenic Leishmania Mexicana promastigotes LmPfHT that are glucose transport deficient and complemented with the Plasmodium falciparum hexose transporter. Activity is measured by DNA content using SYBR green in vitro; assay type: functional

MOLECULE	UNIT ABBREV	inhibition
O=[N+]([O-])c1cccc(S(=O)(=O)N2CCN(CC(O)COc3ccc(-c4ccccc4)cc3)CC2)c1 (configuration not stated)	%	1.75
CC1(C)N=C(N)N=C(N)N1OCCCc1ccccc1	%	2.68
O=C(N[C@H]1CCN(Cc2ccc(OC3CCN(Cc4ccccc4)CC3)c(Br)c2)C1)c1ccc(Cl)c(Cl)c1	%	2.97
CNC(=O)COC(=O)c1c2c(nc3ccccc13)C(=Cc1ccc3c(c1)OCO3)CCC2	%	-1.19
O=C(/C=C/c1ccc(Cl)c(Cl)c1)NCCCN1CCC(c2c[nH]c3ccccc23)CC1	%	5.12
COc1ccccc1NC(=O)Nc1ccc(-c2ccc(-c3nc4cccc(C)c4[nH]3)s2)cc1	%	1.17
N#Cc1ccc(N(CCOC(=O)c2ccc(Br)s2)Cc2ccccc2C(F)(F)F)cc1C(F)(F)F	%	4.9
Cc1ccc(C)c(Cn2ccc3nc(Cl)nc(Cl)c32)c1	%	5.11
O=C(Nc1cccc(C(F)(F)F)c1)N1CCOC(CCN2CCC3(CCc4ccccc43)CC2)(c2ccc(Cl)c(Cl)c2)C1 (configuration not stated)	%	4.51
CN(C(=O)c1ccccc1)C1c2cc(C#N)ccc2OC(C)(C)C1O (configuration not stated)	%	0.76
NC(=O)c1ccccc1Nc1nc(Nc2cc[nH]n2)ncc1Cl	%	4.28
CCCC(=O)c1cnc2c(I)cccc2c1Nc1ccccc1C	%	4.24
CCC[C@@H]([C@@H](CC1CCCCC1)C(=O)N[C@H](C(=O)Nc1nccs1)C(C)(C)SCCNC(=O)OCc1ccccn1)N(O)C=O	%	-0.71
COc1ccc2cc(C(C)NC3CCN(c4cccc(NC(=O)c5ccncc5)c4)CC3)ccc2c1 (configuration not stated)	%	-0.06
O=S(=O)(NC1CCN(c2ccnc3cc(Cl)ccc23)C1)c1ccc(C(F)(F)F)cc1 (configuration not stated)	%	1.67
C=CCN1C(=O)c2[nH]nc(-c3cc(C)c(C)cc3O)c2C1c1cccc(Br)c1 (configuration not stated)	%	1.25
O=C(Nc1ccc(C(=O)N2CCN(CCN3CCN(c4cccc(C(F)(F)F)c4)CC3)CC2)cc1)c1ccc(C(F)(F)F)cc1	%	2.63
COc1cccc2[nH]c(NCCCNCc3cc(Br)cc(Br)c3)nc12	%	1.26
N=C(N)Nc1nc(-c2ccc(NC(=O)Nc3cccc(-c4csc(NC(=N)N)n4)c3)cc2)cs1	%	0
CCOc1ccc(-c2nonc2NC(=O)c2cccc(Cl)c2)cc1OCC	%	3.66
O=C(NC1CCN(c2ccnc3cc(Cl)ccc23)C1)c1ccccc1F (configuration not stated)	%	2.22
COc1ccc(CNCCCCCNCc2ccc(Cl)c(Cl)c2)cc1Cl	%	3.58
O=C(Nc1ccccc1)N(Cc1ccccc1-c1cccc(CNCc2ccc3c(c2)OCO3)c1)C1CCN(Cc2ccccc2)CC1	%	-2.6
Oc1c(Cl)cc(Nc2nccc(Nc3ccc(Oc4ccccc4)cc3)n2)cc1Cl	%	4.44
O=S(=O)(Nc1cccc(CCN2CCC(N3CCCCC3)CC2)c1)c1ccc(Oc2ccccc2)nc1	%	4.85
COc1ccc(Cl)cc1N1CCN(CCCNC(=O)c2ccc(-c3nc4ccc(C(F)(F)F)cc4[nH]3)c(C)c2)CC1	%	0.02
O=C(Nc1cccc(-c2nn3ncccc3c2-c2ccnc(Nc3cccc(-c4cnco4)c3)n2)c1)c1c(F)cccc1F	%	7.13
CN(C)CCOc1ccc(N2CCN(CCCCNC(=O)c3ccc(NC(=O)c4ccc(Cl)cc4)cc3)CC2)cc1	%	0.36
COc1ccc2ncc(F)c(CCN3CC[C@@H](CNCc4cc(C)c5c(c4)OCCO5)C3)c2n1	%	8.46
O=C(NC1CCN(Cc2ccccc2)CC1)c1ccc(-c2nc3cc(Cl)c(Cl)cc3[nH]2)c(F)c1	%	9.26
Nc1nonc1-c1nc2c(-c3cccc(Cl)c3)nccc2n1CCCNC(=O)Cc1ccc(Cl)cc1	%	0.77
NCC1CCCN1Cc1cccc(-c2ccc(-c3nc4cc(C(F)(F)F)ccc4[nH]3)cc2)c1 (configuration not stated)	%	0.65
O=C(NC1CCC1)C1CCN(C(c2ccc(Cl)cc2)c2ccc(Cl)cc2)CC1	%	1.93
CC(C)(C)c1ccc(CNC(=O)COc2ccc(-c3nnc(-c4cccc([N+](=O)[O-])c4)o3)cc2[N+](=O)[O-])cc1	%	-0.74
N#Cc1cccc(C(=O)NC2CCN(CCCCCNC(=O)/C=C/c3ccc(Cl)c(Cl)c3)CC2)c1	%	5.26
COc1ccc(C2(CNCC(O)c3cccc([N+](=O)[O-])c3)CCCC2)cc1OC (configuration not stated)	%	4.72
O=C(Nc1ccc(-c2nc3ccccc3[nH]2)cc1)c1ccc(N2CCOCC2)c([N+](=O)[O-])c1	%	-0.76

###

Listed next: entries and their corresponding inhibition.
target: Glucose transporter (Leishmania mexicana) (UniProt O61059); assay: ST_JUDE_LEISH: Cytotoxicity at 2uM final concentration against transgenic Leishmania Mexicana promastigotes LmGT2 that are glucose transport deficient and complemented with the L. Mexicana glucose transporter 2. Activity is measured by DNA content using SYBR green in vitro; assay type: functional
QUANTITY: inhibition (%)

COMPOUND	TEST TARGET	QUANTITY	UNIT ABBREV	RESULT VALUE
Cc1cc(N/N=C/c2ccc([N+](=O)[O-])cc2)c2ccc(F)cc2n1	Glucose transporter (Leishmania mexicana) (UniProt O61059)	inhibition	%	-1.86
O=C(Nc1cccc(CN2CCCN(Cc3ccc(O)cc3)CC2)c1)c1cccc(F)c1	Glucose transporter (Leishmania mexicana) (UniProt O61059)	inhibition	%	9.62
CCC(C)OC(=O)C1=C(C)NC2=C(C(=O)CC(c3ccc(OC)c(OC)c3)C2)C1c1ccc(O)cc1 (stereo not given)	Glucose transporter (Leishmania mexicana) (UniProt O61059)	inhibition	%	1.8
CCOC(=O)c1cc(C(=O)OC)c2ccccn12	Glucose transporter (Leishmania mexicana) (UniProt O61059)	inhibition	%	1.34
Cc1nc(C)c(CC(=O)Nc2cccc(-c3cccc(-c4nc5cc(C(F)(F)F)ccc5[nH]4)c3)c2)s1	Glucose transporter (Leishmania mexicana) (UniProt O61059)	inhibition	%	1.2
CN(Cc1ccccc1)C1CCN(c2cc(NC(=O)c3cccc(F)c3)ccn2)CC1	Glucose transporter (Leishmania mexicana) (UniProt O61059)	inhibition	%	6.54
OCCNc1nc(Nc2ccccc2)nc2ccccc12	Glucose transporter (Leishmania mexicana) (UniProt O61059)	inhibition	%	2.07
CCc1ccc2c(c1O)CCN(C)C2Cc1ccccc1Cl (stereo not given)	Glucose transporter (Leishmania mexicana) (UniProt O61059)	inhibition	%	11.8
CCCCCCCn1c(=N)n(CC(O)c2ccc(Cl)c(Cl)c2)c2ccccc21 (stereo not given)	Glucose transporter (Leishmania mexicana) (UniProt O61059)	inhibition	%	13.2
COc1cc(C(=O)NCCCN2CCN(c3cc(Cl)ccc3OC)CC2)ccc1-c1nc2cc(Cl)c(Cl)cc2[nH]1	Glucose transporter (Leishmania mexicana) (UniProt O61059)	inhibition	%	5.03

###

molecular target: Hexose transporter 1 (Plasmodium falciparum); test: ST_JUDE_LEISH: Cytotoxicity at 2uM final concentration against transgenic Leishmania Mexicana promastigotes LmPfHT that are glucose transport deficient and complemented with the Plasmodium falciparum hexose transporter. Activity is measured by DNA content using SYBR green in vitro; assay type: functional
Measured inhibition accompanies every entry in the list below.

COMPOUND	inhibition
N#Cc1ccc2c(c1)CN(CCC1CCC(NC(=O)c3cc4ccccc4cc3N)CC1)CC2 (stereo not given)	5.45%
N#Cc1cncc(-c2nc3c(N4CCC(N5CCCC5)CC4)cccc3n2CCNCc2ccccc2)c1	0.8%
CCCc1ccc(Cc2cnc3nc(N)nc(N)c3c2C)cc1	53.8%
Cc1ccccc1OCC(=O)Nc1ccc(-c2nc3cc4ccccc4cc3[nH]2)cc1	3.71%
O=C(NC1CCN(Cc2ccc(Cl)cc2)CC1)c1cn(-c2ccccc2)nc1-c1cccnc1	0.95%

###

inhibition overview
molecular target: Glucose transporter (Leishmania mexicana); test: ST_JUDE_LEISH: Cytotoxicity at 2uM final concentration against transgenic Leishmania Mexicana promastigotes LmGT2 that are glucose transport deficient and complemented with the L. Mexicana glucose transporter 2. Activity is measured by DNA content using SYBR green in vitro; format: functional

COMPOUND	inhibition
Cc1ccc(Nc2nccc(Nc3ccc4c(c3)nc(Nc3cc(C(C)(C)C)on3)n4C)n2)cc1S(C)(=O)=O	-1.41%
Cc1ccc(O)c(C(=O)c2cc(C(=O)Nc3ccccc3C)c(=O)n(-c3ccccc3C)c2)c1	1.81%
O=C(Nc1ccc(OC(F)(F)F)cc1)NC1CCN(c2ccnc3ccccc23)CC1	-1.28%
CCc1c(C(=O)NC2CCC(N3CCC(c4ccccc4OC)CC3)CC2)[nH]c2ccc(OC)cc12 (centres undefined)	0.22%
Oc1ccc(CCCc2cc(Oc3c(I)cc(CCc4ncc[nH]4)cc3I)ccc2O)cc1	-1.55%
CCOC(=O)c1ccc(NC(=O)Nc2ccc(-c3cccc(-c4nc5cccc(C)c5[nH]4)c3)cc2)cc1	-0.76%
CC(C)(C)NCC(O)COc1ccc(Cl)cc1C1=NNC(=O)CC1 (centres undefined)	0.82%
COC(=O)[C@@H](NC(=O)[C@H](Cc1ccc(OC)c(OC)c1)Nc1ccc(C#N)c2ccccc12)c1ccc(O)cc1	6.41%
CCc1ccc(NC(=O)c2ccc(CN3CCCN(CC4CCCCC4)CC3)cc2)cc1	7.64%
